- Test system: human peripheral blood mononuclear cells (PBMCs)
- assay-explanation: Human PBMC activation assay, cytokine levels (IL-10, IL-6, MCP-1, TNF-α) in supernatant after 24 hours (Example 9)
- details: human PBMC supernatant after 24 hours; 200 μM oligonucleotide
measured-endpoint: Levels of IL-6 (pg/mL)
Give your result in pg/mL as a bare value.

Find the measured Levels of IL-6: item 830037 (antisense CTATTGGCTGATCTGG; 3-10-3 cEt gapmer, further chemistry not given here) [compound 830037] , target or system human peripheral blood mononuclear cells (PBMCs).
71.2

Form entry - test system: human peripheral blood mononuclear cells (PBMCs); read-out: Levels of IL-6; substance: 829994 (GGAGGCAGGGCCGCGA; 3-10-3 cEt gapmer, further chemistry not given here) [compound 829994]
97.1

The record that follows has no Levels of IL-6 shown yet.
Give human peripheral blood mononuclear cells (PBMCs) Levels of IL-6 for 830025 (antisense TTTGTAAATCGAAAGC; 3-10-3 cEt gapmer, further chemistry not given here) [compound 830025]
30.6

---

- System: human SMAD7 mRNA
- assay-explanation: Antisense inhibition of human SMAD7 mRNA expression in Hep3B cells by 3-10-3 cEt gapmers, 10,000 nM, electroporation (Example 2)
- Format: cell-based
- details: Hep3B cells, electroporation with 10,000 nM antisense oligonucleotide, approximately 24 hours, RTS5062, percent inhibition of SMAD7 mRNA relative to untreated control cells
Strand notation (5' to 3'): a small letter for the sugar, then the base; units joined by * are phosphorothioate-linked, units joined directly phosphodiester-linked; [ ] holds rarer units or linkages, { } end groups; capitals alone tell only the bases. k = constrained ethyl (cEt); [5mC] = 5-methylcytosine; d = 2'-deoxy (DNA)
measured-endpoint: % Inhibition (%)
Supply the numeric figure in %, leaving out any unit text.

Name the reported % Inhibition value associated with the substance 799822 (antisense k[5mC]*kA*k[5mC]*dG*dA*dT*d[5mC]*d[5mC]*dT*dG*dG*dG*d[5mC]*kT*k[5mC]*kT) [compound 799822]
0

Form field: reported % Inhibition of 799666 (antisense k[5mC]*kA*kG*dA*dT*dG*d[5mC]*d[5mC]*dA*dG*d[5mC]*dA*dA*kG*kG*kA) [compound 799666]
51

Record request: % Inhibition value, item 799769 (k[5mC]*k[5mC]*kA*d[5mC]*d[5mC]*dA*dA*d[5mC]*d[5mC]*dT*d[5mC]*dT*dG*kT*kG*kG; antisense) [compound 799769]
0

Which value of % Inhibition has been reported for 799807 (antisense kA*kA*kA*dT*dT*dG*dG*dA*dA*dT*dT*dG*dA*kG*kA*k[5mC]) [compound 799807] in the records?
37

Need % Inhibition of 799275 (antisense k[5mC]*kA*kG*dT*dT*dA*dA*dT*d[5mC]*dA*dT*dT*dA*k[5mC]*kT*k[5mC]) [compound 799275] , thanks.
0

# % Inhibition lookup, item 799627 (k[5mC]*kA*k[5mC]*dA*dA*dG*d[5mC]*dT*dT*dG*d[5mC]*dA*d[5mC]*k[5mC]*k[5mC]*kA; antisense) [compound 799627]
48

---

- System: human peripheral blood mononuclear cells (PBMCs)
- assay-explanation: Human PBMC activation assay, cytokine levels (IL-10, IL-6, MCP-1, TNF-α) in supernatant after 24 hours (Example 9)
- details: human PBMC supernatant after 24 hours; 40 μM oligonucleotide
measured-endpoint: Levels of IL-10 (pg/mL)
Response body: numeric value in pg/mL, unit text excluded.

Reported Levels of IL-10 for 830121 (AGAATCAAGCCCTGGC; 3-10-3 cEt gapmer, further chemistry not given here) [compound 830121] : what is it?
2.2

Reported Levels of IL-10, substance 790615 (CCAATGAGAATGCTTC; 3-10-3 cEt gapmer, further chemistry not given here) [compound 790615] : ____
0.8

Would you kindly share the measured Levels of IL-10 for 830037 (antisense CTATTGGCTGATCTGG; 3-10-3 cEt gapmer, further chemistry not given here) [compound 830037] ?
4.7

New cases:
GET /values?readout=Levels of IL-10&item= 830025 (antisense TTTGTAAATCGAAAGC; 3-10-3 cEt gapmer, further chemistry not given here) [compound 830025]
1.4

Please report the recorded Levels of IL-10 for 829994 (GGAGGCAGGGCCGCGA; 3-10-3 cEt gapmer, further chemistry not given here) [compound 829994] .
4.3

Dear colleague, I am looking for the recorded Levels of IL-10 of the following substance: 798781 (CGTAAGATTCACAGCA; 3-10-3 cEt gapmer, further chemistry not given here) [compound 798781]
1.4

Given 736697 (antisense GTCGCCCCTTCTCCCCGCAGC; chemistry not fully specified) [compound 736697] , state its recorded Levels of IL-10.
4.7
